Tested on: COLO 205
Assay: Cytotoxicity against human COLO205 cells after 48 hrs by MTT assay
Assay type: functional, cell-based
Details: COLO 205, 48 h
measure: IC50

Complete the entry with IC50 for O=C(O)c1cc2[nH]c3ccccc3c2o1
> 50 µM

Annotate the compound COC(=O)c1cc2c(o1)c1ccccc1n2Cc1cccc(Cl)c1 with its measured IC50.
> 50 µM

State its IC50: OCc1cc2c(o1)c1ccccc1n2Cc1ccc2c(c1)OCO2
> 50 µM

Supply measured IC50 of OCc1cc2c(o1)c1ccccc1n2Cc1ccccc1F in your reply.
40.9 µM

Give the reported IC50 for this compound. Cn1c2ccccc2c2oc(C(=O)O)cc21
> 50 µM

Identify measured IC50 corresponding to OCc1cccc(Cn2c3ccccc3c3oc(CO)cc32)c1
> 50 µM

Identify IC50 associated with the compound OCc1cc2c(o1)c1ccccc1n2Cc1ccc(Cl)cc1
8.1 µM

Could you please provide reported IC50 for COC(=O)c1cc2c(o1)c1ccccc1n2Cc1ccccc1 ? Thanks!
> 50 µM

Return reported IC50. Input compound: COc1ccc(Cn2c3ccccc3c3oc(CO)cc32)cc1
29.8 µM

Tell me its IC50 given COC(=O)c1cc2c(o1)c1ccccc1n2Cc1ccc(C(=O)OC)s1 as the entry.
> 50 µM

Supply recorded IC50 for CCn1c2ccccc2c2oc(C(=O)O)cc21 here.
> 50 µM

Please report the measured IC50 for OCc1cc2[nH]c3ccccc3c2o1
> 50 µM

---

Please provide measured IC50 for the entries that follow.
Test: Cytotoxicity against human H460 cells after 48 hrs by MTT assay
Type: functional, cell-based
Details: NCI-H460, 48 h

For the compound COC(=O)c1cccc(Cn2c3ccccc3c3oc(C(=O)OC)cc32)c1 , report IC50.
> 50 µM

Supply reported IC50 belonging to this compound: COC(=O)c1cc2c(o1)c1ccccc1n2Cc1cccc(Cl)c1
> 50 µM

For COC(=O)c1cc2c(o1)c1ccccc1n2Cc1cccc(OC)c1 , write its IC50.
> 50 µM

Output measured IC50 for this item: COc1ccccc1Cn1c2ccccc2c2oc(CO)cc21
30.8 µM

Return the recorded IC50 value; entry: OCc1cc2c(o1)c1ccccc1n2Cc1ccc(F)cc1
36.7 µM

Consider the compound COC(=O)c1cc2c(o1)c1ccccc1n2Cc1ccccc1Cl . State its measured IC50.
> 50 µM

Look up and state reported IC50 for COC(=O)c1cc2c(o1)c1ccccc1n2Cc1ccc(C(=O)OC)s1
> 50 µM

Output IC50 of OCc1cc2c(o1)c1ccccc1n2Cc1ccc2c(c1)OCO2
> 50 µM

Return value of IC50 for input OCc1cc2c(o1)c1ccccc1n2Cc1cccc(Cl)c1 , no commentary.
50 µM

---

So I've got a bunch of compounds here, and I need their IC50 values.
System: COLO 205
Assay: Cytotoxicity against human COLO205 cells after 48 hrs by MTT assay
Assay type: functional, cell-based
Conditions: COLO 205, 48 h

Identify measured IC50 obtained with COLO 205 for COC(=O)c1cc2c(o1)c1ccccc1n2Cc1cccc(F)c1 .
> 50 µM

GET IC50 where system = COLO 205 and item = O=C(O)c1cc2c(o1)c1ccccc1n2Cc1ccccc1
> 50 µM

Report the value of IC50 obtained on COLO 205 for OCc1cc2c(o1)c1ccccc1n2Cc1ccccc1 .
30.6 µM

Provide measured IC50 on COLO 205 for Cn1c2ccccc2c2oc(CO)cc21 please.
> 50 µM

Write down measured IC50 (COLO 205) for this compound. COC(=O)c1cc2c(o1)c1ccccc1n2Cc1ccccc1Cl
> 25 µM

Recall the reported IC50 of COC(=O)c1cc2c(o1)c1ccccc1n2Cc1ccc(C(=O)OC)[se]1 when tested on COLO 205.
> 50 µM

Write IC50 of COC(=O)c1ccc(Cn2c3ccccc3c3oc(C(=O)OC)cc32)o1 ; system used: COLO 205
> 50 µM

Report IC50 under test system COLO 205 for COC(=O)c1cc2c(o1)c1ccccc1n2Cc1ccccc1OC .
32.9 µM

Fetch value of IC50 on COLO 205 for COC(=O)c1cc2c(o1)c1ccccc1n2Cc1cccc(OC)c1 .
> 50 µM

Report value only: IC50, COLO 205, COC(=O)c1cc2[nH]c3ccccc3c2o1
> 50 µM

Give reported IC50 for COC(=O)c1ccc(Cn2c3ccccc3c3oc(C(=O)OC)cc32)cc1 (COLO 205)
> 50 µM

Report IC50 under test system COLO 205 for OCc1ccc(Cn2c3ccccc3c3oc(CO)cc32)o1 .
31.1 µM

For COLO 205, give the measured IC50 of the entry COC(=O)c1cc2c(o1)c1ccccc1n2C
> 50 µM

Look up and report measured IC50 (COLO 205) for the following compound: COC(=O)c1cc2c(o1)c1ccccc1n2Cc1ccc(Cl)cc1
> 50 µM

// fetch IC50 for OCc1ccc(Cn2c3ccccc3c3oc(CO)cc32)cc1 ; system: COLO 205
> 50 µM

Give IC50; test system COLO 205; compound OCc1cc2c(o1)c1ccccc1n2Cc1ccc(F)cc1
35.9 µM

Please report the measured IC50 for COC(=O)c1cc2c(o1)c1ccccc1n2Cc1ccc(F)cc1 tested on COLO 205.
> 50 µM

Given OCc1cc2c(o1)c1ccccc1n2Cc1ccccc1Cl , report its IC50 on COLO 205.
26.7 µM

Report measured IC50 on COLO 205; entry: OCc1cc2c(o1)c1ccccc1n2Cc1ccc(CO)[se]1
> 50 µM

State IC50 (COLO 205) of OCc1cc2c(o1)c1ccccc1n2Cc1cccc(Cl)c1 .
26.4 µM

Print COLO 205 IC50 for COC(=O)c1cc2c(o1)c1ccccc1n2Cc1ccc2c(c1)OCO2 .
> 50 µM

Give IC50 for CCn1c2ccccc2c2oc(C(=O)OC)cc21 tested on COLO 205.
> 50 µM

Write down the reported IC50 (system: COLO 205) of COC(=O)c1cccc(Cn2c3ccccc3c3oc(C(=O)OC)cc32)c1
> 50 µM

Provide IC50, system COLO 205, entry CCn1c2ccccc2c2oc(CO)cc21
> 50 µM

Find IC50 for COc1ccccc1Cn1c2ccccc2c2oc(CO)cc21 on COLO 205 and write it down.
28.3 µM

---

Field: pIC50. Provide a value for each of the compounds that follow.
System: COLO 205
Experiment: Cytotoxicity against human COLO205 cells after 48 hrs by MTT assay
Format: functional, cell-based
Details: COLO 205, 48 h
pIC50: −log10 of the molar value.

Tell me pIC50 reported for OCc1cc2c(o1)c1ccccc1n2Cc1ccc(CO)s1
< 4.30

Determine its reported pIC50: COC(=O)c1cc2c(o1)c1ccccc1n2Cc1ccc(OC)cc1
< 4.30

Identify the reported pIC50 for the following entry. COC(=O)c1cc2c(o1)c1ccccc1n2Cc1ccccc1F
< 4.30

Return pIC50 (reported value) for this compound: COc1cccc(Cn2c3ccccc3c3oc(CO)cc32)c1
4.50

# return recorded pIC50 for input OCc1cc2c(o1)c1ccccc1n2Cc1cccc(F)c1
< 4.30
